Just for reference, ChEMBL document CHEMBL3817746 is where these values come from.

# ASSAY TARGET: Epidermal growth factor receptor (Homo sapiens, UniProt P00533, L858R)
# Sequence (P00533 25-1210 L858R limits assumed): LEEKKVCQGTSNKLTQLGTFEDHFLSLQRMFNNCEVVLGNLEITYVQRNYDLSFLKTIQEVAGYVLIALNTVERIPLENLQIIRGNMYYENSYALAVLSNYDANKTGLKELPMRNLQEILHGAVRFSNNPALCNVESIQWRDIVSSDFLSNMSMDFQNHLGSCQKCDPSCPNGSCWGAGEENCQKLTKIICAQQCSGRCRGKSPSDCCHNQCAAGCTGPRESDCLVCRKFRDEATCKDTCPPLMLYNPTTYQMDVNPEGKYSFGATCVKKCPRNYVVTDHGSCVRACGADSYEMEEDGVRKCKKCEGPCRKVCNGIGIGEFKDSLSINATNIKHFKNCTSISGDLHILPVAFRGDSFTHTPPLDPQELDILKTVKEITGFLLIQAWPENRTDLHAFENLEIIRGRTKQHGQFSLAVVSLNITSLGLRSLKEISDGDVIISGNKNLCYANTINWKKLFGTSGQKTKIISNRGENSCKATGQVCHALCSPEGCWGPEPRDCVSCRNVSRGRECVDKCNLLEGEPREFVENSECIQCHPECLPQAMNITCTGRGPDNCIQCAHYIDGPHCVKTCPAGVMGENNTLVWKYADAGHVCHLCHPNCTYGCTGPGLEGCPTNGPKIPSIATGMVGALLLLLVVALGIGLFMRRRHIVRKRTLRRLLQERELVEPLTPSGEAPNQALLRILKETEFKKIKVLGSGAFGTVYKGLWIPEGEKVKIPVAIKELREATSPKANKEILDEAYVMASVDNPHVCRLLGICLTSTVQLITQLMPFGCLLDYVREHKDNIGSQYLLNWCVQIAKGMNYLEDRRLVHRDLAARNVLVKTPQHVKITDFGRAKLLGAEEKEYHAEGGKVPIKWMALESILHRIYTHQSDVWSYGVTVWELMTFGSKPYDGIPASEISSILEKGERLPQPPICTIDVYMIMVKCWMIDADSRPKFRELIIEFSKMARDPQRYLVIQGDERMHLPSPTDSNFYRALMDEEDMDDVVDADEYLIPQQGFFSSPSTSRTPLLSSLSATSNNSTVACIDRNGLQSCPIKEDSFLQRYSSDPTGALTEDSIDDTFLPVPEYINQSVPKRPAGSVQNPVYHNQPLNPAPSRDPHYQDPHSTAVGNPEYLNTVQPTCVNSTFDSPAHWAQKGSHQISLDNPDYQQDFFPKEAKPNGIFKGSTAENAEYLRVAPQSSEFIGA
# TEST SUMMARY: Inhibition of recombinant human EGFR L858R mutant expressed in baculovirus infected insect cells preincubated for 5 mins followed by ATP addition for 30 mins by HTRF assay
Rule: IC50 below 5 nM gives satisfied. Equal to or above 5 nM gives not satisfied.

Solved cases (3 shown):
> print(dat)
                                smiles.text     class.name
1  COc1cc2ncnc(Nc3ccc(F)c(Cl)c3)c2cc1NC(=O)[C@@H]1COC(=O)N1      satisfied
2  COc1cc2ncnc(Nc3cccc(Br)c3)c2cc1NC(=O)[C@@H]1COC(=O)N1      satisfied
3  CCOc1cc2ncnc(Nc3ccc(OCc4cccc(F)c4)c(Cl)c3)c2cc1NC(=O)[C@H]1COC(=O)N1  not satisfied

Exercise: Please determine if O=C1N[C@H](C(=O)Nc2cc3c(Nc4ccc(F)c(Cl)c4)ncnc3cc2OCCN2CCCCC2)CO1 is below 5 nM in terms of IC50.
Solution: not satisfied

Exercise: Please determine if CCOc1cc2ncnc(N[C@@H](C)c3ccccc3)c2cc1NC(=O)[C@@H]1COC(=O)N1 is below 5 nM in terms of IC50.
Solution: satisfied
